Assay: DNDI: Solubility in 0.01M HCl at pH 2 determined by nephelometry
Details: 0.01M HCl, pH 2, Kinetic
READOUT_KIND: solubility kinetic

# COMPOUND, READOUT_KIND, READOUT_VALUE
data = [
    ("O=C(NCCc1cnc[nH]1)c1cnc(-c2ccccc2)cn1", "solubility kinetic", "> 100 µg/mL"),
    ("CCN(Cc1cccnc1)c1ccc(-c2ccc(F)cc2)cc1F", "solubility kinetic", "59.5 µg/mL"),
    ("CCN(Cc1cccnc1)c1cccc(-c2nc3ccccc3s2)c1", "solubility kinetic", "> 100 µg/mL"),
    ("CO/N=C(\\C)c1ccc(-n2ccnc2)c(NC(=O)c2ccc(-c3ccccc3)nc2)c1", "solubility kinetic", "> 100 µg/mL"),
    ("O=C(C1CC1)N(Cc1cccnc1)c1cc(F)cc(-c2nc3ccccc3s2)c1", "solubility kinetic", "66.9 µg/mL"),
    ("CCN(c1ccccc1)S(=O)(=O)c1ccc(Cl)c(NC(=O)CNC2CCCN(C)C2)c1.O=CO (stereo not drawn)", "solubility kinetic", "101 µg/mL"),
    ("CO/N=C(\\C)c1ccc(-n2ccnc2)c(NC(=O)c2cnc(-c3ccccc3)nc2)c1", "solubility kinetic", "> 100 µg/mL"),
    ("N#Cc1ccc(-n2ccnc2)c(NC(=O)c2cnc(-c3ccccc3)s2)c1", "solubility kinetic", "> 100 µg/mL"),
    ("O=C(C1CC1)N(Cc1cccnc1)c1cccc(-c2nc3ccccc3s2)c1", "solubility kinetic", "> 100 µg/mL"),
    ("CCS(=O)(=O)N(Cc1cccnc1)c1cncc(-c2nc3ccccc3s2)c1", "solubility kinetic", "> 82.1 µg/mL"),
    ("CCN(c1ccccc1)S(=O)(=O)c1ccc(Cl)c(NC(=O)c2ccc3c(c2)CCNC3)c1", "solubility kinetic", "95.9 µg/mL"),
    ("CO/N=C(\\C)c1ccc(-n2ccnc2)c(NC(=O)c2ccc(-c3cccs3)nc2)c1", "solubility kinetic", "> 100 µg/mL"),
    ("CO/N=C(\\C)c1ccc(-n2ccnc2)c(NC(=O)c2sc(-c3ccccc3)nc2C)c1", "solubility kinetic", "> 100 µg/mL"),
    ("CS(=O)(=O)N(Cc1c[nH]cn1)c1ccc(-c2ccc(F)cc2)cc1F", "solubility kinetic", "> 100 µg/mL"),
    ("CCS(=O)(=O)N(Cc1cccnc1)c1cccc(-c2nc3ccccc3s2)c1", "solubility kinetic", "> 100 µg/mL"),
    ("CO/N=C(\\C)c1ccc(-n2ccnc2)c(NC(=O)c2cncc(-c3ccccc3)n2)c1", "solubility kinetic", "> 50 µg/mL"),
    ("CS(=O)(=O)N(Cc1cnc[nH]1)c1ccc(-c2nc3ccccc3s2)cc1", "solubility kinetic", "> 100 µg/mL"),
    ("CO/N=C(\\C)c1ccc(-n2ccnc2)c(NC(=O)c2ccc(-c3ccccc3)cc2)c1", "solubility kinetic", "> 100 µg/mL"),
    ("Cl.NCC(=O)N(Cc1cccnc1)c1cc(F)cc(-c2nc3ccccc3s2)c1", "solubility kinetic", "57.5 µg/mL"),
    ("Cc1ccc(-n2ccnc2)c(NC(=O)c2cnc(-c3ccccc3)s2)c1", "solubility kinetic", "> 100 µg/mL"),
    ("CO/N=C(\\C)c1ccc(-n2ccnc2)c(NC(=O)c2cnc(-c3ccccc3)cn2)c1", "solubility kinetic", "25 µg/mL"),
    ("CCOC(COc1ccc2cc(Br)ccc2c1)Cn1ccnc1.O=CO (stereo not drawn)", "solubility kinetic", "> 100 µg/mL"),
    ("CO/N=C(\\C)c1ccc(-n2ccnc2)c(NC(=O)c2ccc(-c3ccccn3)s2)c1", "solubility kinetic", "> 100 µg/mL"),
    ("CS(=O)(=O)N(Cc1cccnc1)c1ccc(-c2ccc(F)cc2)cc1F", "solubility kinetic", "> 74.9 µg/mL"),
    ("CCN(c1ccccc1)S(=O)(=O)c1ccc(NC(=O)CN(C)C2CCN(C)CC2)c(Cl)c1.Cl", "solubility kinetic", "> 100 µg/mL"),
    ("N#Cc1ccc(-n2ccnc2)c(NC(=O)c2cnc(-c3ccccc3)nc2)c1", "solubility kinetic", "50 µg/mL"),
    ("CS(=O)(=O)c1ccc(-n2ccnc2)c(NC(=O)c2cnc(-c3ccccc3)nc2)c1", "solubility kinetic", "50 µg/mL"),
    ("CCN(Cc1cccnc1)c1cc(F)cc(-c2nc3ccccc3s2)c1", "solubility kinetic", "57.2 µg/mL"),
    ("CN(CC(O)COc1ccc2cc(Br)ccc2c1)C1CCCCC1 (stereo not drawn)", "solubility kinetic", "> 100 µg/mL"),
    ("O=C(Nc1ccccc1-n1ccnc1)c1cnc(-c2ccccc2)nc1", "solubility kinetic", "> 100 µg/mL"),
    ("Cc1ccc(-n2ccnc2)c(NC(=O)c2cnc(-c3ccccc3)nc2)c1", "solubility kinetic", "> 100 µg/mL"),
    ("CC(C)Cc1ccc(-n2ccnc2)c(NC(=O)c2cnc(-c3ccccc3)s2)c1", "solubility kinetic", "> 100 µg/mL"),
    ("CO/N=C(\\C)c1ccc(-n2ccnc2)c(NC(=O)c2cnc(-c3ccccn3)s2)c1", "solubility kinetic", "> 100 µg/mL"),
    ("CCN(Cc1cccnc1)c1cncc(-c2nc3ccccc3s2)c1", "solubility kinetic", "66.3 µg/mL"),
    ("CCN(Cc1cnc[nH]1)c1cc(F)cc(-c2nc3ccccc3s2)c1", "solubility kinetic", "> 70.5 µg/mL"),
    ("CC(=O)N(Cc1cccnc1)c1ccc(-c2nc3ccccc3s2)cc1", "solubility kinetic", "71 µg/mL"),
    ("O=C(NCCc1cnc[nH]1)c1ccc2cc(Br)ccc2c1", "solubility kinetic", "64.3 µg/mL"),
    ("CCN(CC)S(=O)(=O)c1ccc(-n2ccnc2)c(NC(=O)c2cnc(-c3ccccc3)nc2)c1", "solubility kinetic", "50 µg/mL"),
    ("O=c1c2ccccc2nc(-c2ccc(-c3ccccc3)cc2)n1Cc1cccnc1", "solubility kinetic", "> 100 µg/mL"),
    ("CCN(Cc1c[nH]cn1)c1ccc(-c2nc3ccccc3s2)cc1", "solubility kinetic", "> 100 µg/mL"),
    ("CN(C)S(=O)(=O)c1ccc(-n2ccnc2)c(NC(=O)c2cnc(-c3ccccc3)s2)c1", "solubility kinetic", "> 100 µg/mL"),
    ("CC(C)N(C)CC(O)COc1ccc2cc(Br)ccc2c1 (stereo not drawn)", "solubility kinetic", "> 100 µg/mL"),
    ("CC(=O)N(Cc1c[nH]cn1)c1ccc(-c2nc3ccccc3s2)cc1", "solubility kinetic", "> 100 µg/mL"),
]

* * *

Assay: in vitro
Details: human, microsomes
Below is a list of entries, each paired with its recorded microsomal CLint value.

# COMPOUND, DISPLAY_UNIT, PREFIX_OPERATOR, microsomal CLint
records = [
    ("CO/N=C(\\C)c1ccc(-n2ccnc2)c(NC(=O)c2ccc(-c3ccccn3)s2)c1", "µL/min/mg", "=", 30),
    ("CN(C)S(=O)(=O)c1ccc(-n2ccnc2)c(NC(=O)c2cnc(-c3ccccc3)s2)c1", "µL/min/mg", "=", 79),
    ("CC(C)N(C)CC(O)COc1ccc2cc(Br)ccc2c1 (centres undefined)", "µL/min/mg", "<", 7),
    ("O=c1c2ccccc2nc(-c2ccc(-c3ccccc3)cc2)n1Cc1cccnc1", "µL/min/mg", "=", 48),
]

* * *

Below is a list of entries, each paired with its recorded pIC50 value.
Assay: DNDI: Cytotoxicity in vitro, against human lung fibroblast (MRC-5) cells
Settings: MRC-5 cells (lung fibroblasts)
pIC50: −log10 of the molar value.
READOUT_KIND: pIC50

# COMPOUND, PREFIX_OPERATOR, READOUT_VALUE
records = [
    ("O=C(Nc1cc(C(F)(F)F)ccc1-n1ccnc1)c1cnc(-c2ccccc2)nc1", "<", 4.19),
    ("CC(C)N(C)CC(O)COc1ccc2cc(Br)ccc2c1 (stereo not given)", "<", 4.19),
    ("CCN(c1ccccc1)S(=O)(=O)c1ccc(NC(=O)CN(C)C2CCN(C)CC2)c(Cl)c1.Cl", "=", 4.39),
    ("CCN(c1ccccc1)S(=O)(=O)c1ccc(Cl)c(NC(=O)c2ccc3c(c2)CCNC3)c1", "=", 4.53),
    ("CN(CC(O)COc1ccc2cc(Br)ccc2c1)C1CCCCC1 (stereo not given)", "<", 4.19),
]

* * *

Assay: DNDI: Permeability in CACO-2 cells at pH 7.4 (A to B)
Assay type: ADME, cell-based
Conditions: human, Caco-2, pH 7.4
READOUT_KIND: Papp A→B (×10⁻⁶ cm/s)

# SMILES_STRUCTURE, READOUT_VALUE
records = [
    ("N#Cc1ccc(-n2ccnc2)c(NC(=O)c2cnc(-c3ccccc3)s2)c1", 82),
]
